Data origin: patent US20120207760A1

assay system: recombinant homotrimeric HA, A/South Carolina/1/18 H1N1 (Influenza A virus A/South Carolina/1/18 (H1N1))
method: trimeric HA microarray, transfection set 4
test parameters: remark: other sources report otherwise
Each entry below carries its reported Trimeric HA Binding RLU.
// return numeric value only (unit: RLU, not printed)

TCN-523 (5248_A17) (antibody, V domains shown) VH: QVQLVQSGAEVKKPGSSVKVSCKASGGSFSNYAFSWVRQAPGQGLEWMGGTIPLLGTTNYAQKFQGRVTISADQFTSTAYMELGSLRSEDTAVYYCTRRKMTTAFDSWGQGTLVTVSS VL: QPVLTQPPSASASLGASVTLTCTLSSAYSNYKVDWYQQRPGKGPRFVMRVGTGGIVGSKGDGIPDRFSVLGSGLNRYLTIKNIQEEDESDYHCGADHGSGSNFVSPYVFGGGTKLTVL
23000

Query (binder): TCN-534 (5249_B02) (antibody, V domains shown) VH: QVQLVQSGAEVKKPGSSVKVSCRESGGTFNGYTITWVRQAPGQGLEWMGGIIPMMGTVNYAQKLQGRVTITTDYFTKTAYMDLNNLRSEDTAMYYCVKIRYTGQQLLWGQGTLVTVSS VL: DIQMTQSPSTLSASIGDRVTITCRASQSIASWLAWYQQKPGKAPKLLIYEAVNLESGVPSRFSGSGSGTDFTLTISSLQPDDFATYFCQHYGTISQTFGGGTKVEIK ; field requested: Trimeric HA Binding RLU
11800

Moving on to the next binder: TCN-504 (3251_K17) (antibody, V domains shown) VH: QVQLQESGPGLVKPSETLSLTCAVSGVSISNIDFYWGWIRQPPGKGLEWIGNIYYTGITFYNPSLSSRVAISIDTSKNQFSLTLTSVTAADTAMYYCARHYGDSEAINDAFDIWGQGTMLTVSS VL: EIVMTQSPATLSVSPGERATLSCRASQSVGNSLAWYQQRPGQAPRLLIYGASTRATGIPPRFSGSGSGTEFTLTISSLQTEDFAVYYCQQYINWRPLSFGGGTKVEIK
21700

Moving on to the next binder: TCN-535 (5246_P19) (antibody, V domains shown) VH: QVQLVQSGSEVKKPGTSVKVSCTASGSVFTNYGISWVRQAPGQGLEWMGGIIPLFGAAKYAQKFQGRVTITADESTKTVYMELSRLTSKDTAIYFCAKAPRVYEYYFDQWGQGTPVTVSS VL: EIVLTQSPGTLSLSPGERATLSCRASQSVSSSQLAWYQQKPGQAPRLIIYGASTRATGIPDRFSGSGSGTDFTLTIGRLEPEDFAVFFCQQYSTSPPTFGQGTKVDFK
22400
